System: Collinsella aerofaciens
Assay: growth AUC relative to DMSO control (median of replicates) (fraction); higher = more growth (less inhibition), active = hit call of the paper
Conditions: 20 µM; 24 h
quantity: growth AUC
Give a plain numeric answer without units written out.

Entry under test: ClC1C(Cl)C(Cl)C(Cl)C(Cl)C1Cl (mixture of isomers) . Its growth AUC was 1

Entry under test: BrCCBr . Its growth AUC was 0.995

Entry under test: Cc1c(F)c(F)c(COC(=O)[C@@H]2[C@H](/C=C(\Cl)C(F)(F)F)C2(C)C)c(F)c1F (mixture of isomers) . Its growth AUC was 0.976

Entry under test: COP(=S)(OC)Oc1cc(Cl)c(Br)cc1Cl . Its growth AUC was 0.978

Entry under test: CNC(=O)CSP(=S)(OC)OC . Its growth AUC was 0.974

Entry under test: CC(=O)CC(c1ccc(Cl)cc1)c1c(O)c2ccccc2oc1=O (stereo unspecified) . Its growth AUC was 1.01

Entry under test: COCC(=O)N(c1c(C)cccc1C)N1CCOC1=O . Its growth AUC was 0.997

Entry under test: O=[N+]([O-])c1ccc(Oc2ccc(Cl)cc2Cl)cc1 . Its growth AUC was 0.998

Entry under test: CCCOC(=O)c1ccccc1C(=O)OCCC . Its growth AUC was 1.01

Entry under test: Clc1ccc(Cl)c(Cl)c1Cl . Its growth AUC was 0.982

Entry under test: CCCCc1c(C)nc(NCC)nc1OS(=O)(=O)N(C)C . Its growth AUC was 0.977

Entry under test: O=C1C(Cl)=C(Cl)C(=O)c2ccccc21 . Its growth AUC was 0.988

Entry under test: CCS(=O)(=O)CCSP(=O)(OC)OC . Its growth AUC was 1.01

Entry under test: CON(C)C(=O)Nc1ccc(Br)c(Cl)c1 . Its growth AUC was 1

Entry under test: CCCC1COC(Cn2cncn2)(c2ccc(Cl)cc2Cl)O1 (stereo unspecified) . Its growth AUC was 0.981

Entry under test: Nc1ccncc1 . Its growth AUC was 1

Entry under test: C#CCOS(=O)OC1CCCCC1Oc1ccc(C(C)(C)C)cc1 (mixture of isomers) . Its growth AUC was 0.975

Entry under test: O=C(NCCc1ncc(C(F)(F)F)cc1Cl)c1ccccc1C(F)(F)F . Its growth AUC was 1

Entry under test: CCOP(=O)(OCC)Oc1ccc(S(C)(=O)=O)cc1 . Its growth AUC was 1.01

Entry under test: CSc1nc(N=[N+]=[N-])nc(NC(C)C)n1 . Its growth AUC was 0.998

Entry under test: O=C1C=C(N(Cc2ccc(Cl)nc2)CC(F)F)CO1 . Its growth AUC was 0.994
